assay.summary: Terminal half life in rabbit administered intravaginally after 1 hr
Format: ADME, organism-based, Oryctolagus cuniculus
cond: in vivo, read-out: beta t1/2 (converted)
reported.metric: half-life (h)

- input.smiles: "CCCCCCCCCc1ccc(OCCOCCOCCOCCOCCOCCOCCOCCOCCO)cc1"
  unit.info: "h"
  reported: 1.45

###

assay.summary: Cmax in rabbit administered administered intravaginally after 1 hr
Type: ADME, organism-based, Oryctolagus cuniculus
cond: in vivo
reported.metric: Cmax (ng/mL)

- input.smiles: "CCCCCCCCCc1ccc(OCCOCCOCCOCCOCCOCCOCCOCCOCCO)cc1"
  reported: 4.87

###

Reported values of inhibition for individual entries
study.target: Human immunodeficiency virus type 1 reverse transcriptase (Human immunodeficiency virus 1)
assay.summary: Inhibition of HIV-1 reverse transcriptase using digoxigenin/biotin-labeled dUTP as substrate at 100 ug/ml incubated for 1 hr followed by compound washout measured after 1 hr by non-radioactive ELISA relative to control
reported.metric: inhibition

- input.smiles: "CCCCSC(=S)N1CCN(C(=S)Nc2cccnc2)CC1"
  reported: "14.9%"
- input.smiles: "CCCCCCCCSC(=S)N1CCN(C(=S)NC(=O)c2ccccc2)CC1"
  reported: "41.3%"
- input.smiles: "CCCCCCSC(=S)N1CCN(C(=S)Nc2ccccc2)CC1"
  reported: "1.9%"
- input.smiles: "CCCCCCSC(=S)N1CCN(C(=S)NC(=O)c2ccccc2)CC1"
  reported: "23.2%"
- input.smiles: "CCCCCCCCSC(=S)N1CCN(C(=S)Nc2cccnc2)CC1"
  reported: "44.7%"
- input.smiles: "CCCSC(=S)N1CCN(C(=S)Nc2ccccc2)CC1"
  reported: "21.5%"
- input.smiles: "S=C(Nc1cccnc1)N1CCN(C(=S)SCc2ccccc2)CC1"
  reported: "25.8%"
- input.smiles: "S=C(NCCc1ccccc1)N1CCN(C(=S)SCc2ccccc2)CC1"
  reported: "11.8%"
- input.smiles: "O=C(NC(=S)N1CCN(C(=S)SCc2ccccc2)CC1)c1ccccc1"
  reported: "12.3%"
- input.smiles: "S=C(NCc1ccccc1)N1CCN(C(=S)SCc2ccccc2)CC1"
  reported: "9.11%"
- input.smiles: "CCCSC(=S)N1CCN(C(=S)NCCc2ccccc2)CC1"
  reported: "28.4%"
- input.smiles: "CCCCCCCCSC(=S)N1CCN(C(=S)NCCc2ccccc2)CC1"
  reported: "15.7%"
- input.smiles: "CCCSC(=S)N1CCN(C(=S)NCc2ccccc2)CC1"
  reported: "20.6%"
- input.smiles: "CCCCSC(=S)N1CCN(C(=S)NCc2ccccc2)CC1"
  reported: "14.2%"
- input.smiles: "S=C(Nc1ccccc1)N1CCN(C(=S)SCc2ccccc2)CC1"
  reported: "21.9%"
- input.smiles: "CCCCCCSC(=S)N1CCN(C(=S)NCCc2ccccc2)CC1"
  reported: "14.8%"
- input.smiles: "CCCCSC(=S)N1CCN(C(=S)Nc2ccccc2)CC1"
  reported: "30.9%"
- input.smiles: "CCCCSC(=S)N1CCN(C(=S)NC(=O)c2ccccc2)CC1"
  reported: "27.8%"
- input.smiles: "CCCCCCSC(=S)N1CCN(C(=S)Nc2cccnc2)CC1"
  reported: "26.1%"
- input.smiles: "CCCCCCCCSC(=S)N1CCN(C(=S)NCc2ccccc2)CC1"
  reported: "36.5%"
- input.smiles: "CCCCCCSC(=S)N1CCN(C(=S)NCc2ccccc2)CC1"
  reported: "27.3%"
- input.smiles: "CCCCCCCCSC(=S)N1CCN(C(=S)Nc2ccccc2)CC1"
  reported: "24%"
- input.smiles: "CCCSC(=S)N1CCN(C(=S)NC(=O)c2ccccc2)CC1"
  reported: "31.4%"
- input.smiles: "CCCSC(=S)N1CCN(C(=S)Nc2cccnc2)CC1"
  reported: "35.4%"
- input.smiles: "CCCCSC(=S)N1CCN(C(=S)NCCc2ccccc2)CC1"
  reported: "13.5%"
